meta.source: PubChem BioAssay (EPA / NIEHS)

Assay: CCTE_Simmons_MITO_basal_resp_rate: CCTE's HepG2 Seahorse XF Respirometric Screening Assay at Basal Respiratory State, Simmons Lab (AID 2284001)
Conditions: actives raise or lower the signal
Activity calls are given as the source filed them. How the source made its calls: active means hit-call score of the fitted dose curve at least 0.9, where 1 is the maximum; inactive means score below 0.9.
Outcomes: 1 (yes) = active, 0 (no) = inactive

molecule	className
CC[C@H](C)[C@H]1O[C@]2(C=C[C@@H]1C)C[C@@H]1C[C@@H](C/C=C(\C)[C@@H](O[C@H]3C[C@H](OC)[C@@H](O[C@H]4C[C@H](OC)[C@@H](O)[C@H](C)O4)[C@H](C)O3)[C@@H](C)/C=C/C=C3\CO[C@@H]4[C@H](O)C(C)=C[C@@H](C(=O)O1)[C@]34O)O2 (tested in a mixture with another compound)	1 (yes)
O=C(O)COc1ccc(Cl)cc1Cl	0 (no)
CCC(C)(NC(=O)c1cc(Cl)c(C)c(Cl)c1)C(=O)CCl (centres undefined)	0 (no)
CCCN(CCOc1c(Cl)cc(Cl)cc1Cl)C(=O)n1ccnc1	1 (yes)
C#CCN1C(=O)COc2cc(F)c(N3C(=O)C4=C(CCCC4)C3=O)cc21	1 (yes)
CC(C)(C)C(O)/C(=C\c1ccc(Cl)cc1Cl)n1cncn1 (centres undefined)	1 (yes)
CCC(C)Nc1c([N+](=O)[O-])cc(C(C)(C)C)cc1[N+](=O)[O-] (centres undefined)	0 (no)
O=C(O)CCCOc1ccc(Cl)cc1Cl	1 (yes)
CC1(c2ccc(Oc3ccccc3)cc2)OC(=O)N(Nc2ccccc2)C1=O (centres undefined)	1 (yes)
